Catalogue of remaining activity at 1 µM readings, one per entry.
# target_or_test_system: human σ2 receptor (TMEM97) (Homo sapiens)
# assay_name: biochemical
# Format: Expi293 membranes
# experimental_context: read-out: % of control remaining
Your answer is read as %, so omit the unit and give the number.

>>> recorded_value("O=C(C[C@H]1C=CCC1)NCC1(O)CCN(C(=O)c2cncnc2)CC1 [ZINC001074556982]")
89.6
>>> recorded_value("C[C@@H]1CCCN1CCNC(=O)N1CCC[C@@H]1[C@@H]1CCCC[C@@]1(C)O [ZINC000897504395]")
90.9
>>> recorded_value("CC1(C)Cc2cc(C(=O)N3CCC[C@@H](N4CCCC4)CC3)ccc2O1 [ZINC000584233558]")
22.7
>>> recorded_value("CC[C@H]1CN(C(=O)C(=O)NCCCN2CCNCC2)CCS1 [ZINC000419873354]")
95.7
>>> recorded_value("O=C1Nc2ccccc2C12CCC(NCC1(O)CCOCC1)CC2 (stereo not shown) [ZINC000178638284]")
111

Exam item: Field request: remaining activity at 1 µM | item: CON(C)CCNC(=O)C(=O)Nc1ccc2c(c1)C(=O)N(C)C2=O [ZINC000850493342]
Marked response: 136

Exam item: Field request: remaining activity at 1 µM | item: C[C@@H]1OCC[C@]1(C)NC(=O)CCc1nc2c(O)nc(=O)n(C)c2[nH]1 [ZINC000345525893]
Marked response: 90.8

* * *

# target_or_test_system: human σ2 receptor (TMEM97) (Homo sapiens)
# assay_name: biochemical
# Assay type: Expi293 membranes
measured_quantity: Ki (nM)
Your answer is read as nM, so omit the unit and give the number.

>>> recorded_value("CC(C)(NCc1ccc2c(c1)OCCO2)[C@H](O)c1ccccc1")
21.4
>>> recorded_value("CC(C)(C)[C@@H]1CCN(C[C@@H](O)CC2(O)CCCCC2)C1")
7.66
>>> recorded_value("O[C@@H](CN1CC[C@@H](C2CCCCC2)C1)CC1(O)CCCCC1")
7.92
>>> recorded_value("CC1CCN(C2CCC(NC(=O)C(=O)Nc3ccc(C(C)C)cc3)CC2)CC1 (centres unmarked)")
14.7
>>> recorded_value("Fc1c(CN2CCN(C[C@@H]3CCCO3)CC2)ccc(Br)c1Cl")
27

Exam item: Field request: Ki | item: CCOC(=O)[C@@H](CC)N1CCN(C2CCC(C(C)C)CC2)CC1 (some centres unmarked)
Marked response: 4.15

Exam item: Field request: Ki | item: `Fc1ccccc1[C@H]1CCN(CC#Cc2cccc(Cl)c2)C1`
Marked response: 22.6

Exam item: Field request: Ki | item: `CC(C)CCO[C@@H]1CCN(C[C@H]2CC3(CCCCC3)CO2)C1`
Marked response: 2.4

Exam item: Field request: Ki | item: `Cc1cc(C)c2cc(CN3CCC[C@H](N4CCCC4)CC3)[nH]c2c1`
Marked response: 21.6

Exam item: Field request: Ki | item: `C[C@@H](C(=O)N(C)Cc1cccc(F)c1)N1CC=C(c2c[nH]c3ncccc23)CC1`
Marked response: 34.5

* * *

# target_or_test_system: human σ2 receptor (TMEM97) (Homo sapiens)
# assay_name: biochemical
# Format: Expi293 membranes
# experimental_context: read-out: % of control remaining
Catalogue of remaining activity at 1 µM readings, one per entry.
Your answer is read as %, so omit the unit and give the number.

Previously resolved entries follow.
>>> recorded_value("c1ccc(SC[C@@H]2CCN(c3cc(N4CCCCC4)ncn3)C2)cc1")
88.5
>>> recorded_value("CN(C)c1ccc(C(=O)N2CC(O)(CNC(=O)c3cnn[nH]3)C2)nc1")
88.5

Consider the record given below.
Exam item: Field request: remaining activity at 1 µM | item: `CN1CCC(C(=O)NC[C@@H]2CCN(c3ncc(Cl)cn3)C2)CC1`
Marked response: 91.3

* * *

Catalogue of remaining activity at 1 µM readings, one per entry.
# target_or_test_system: human σ2 receptor (TMEM97) (Homo sapiens, UniProt Q5BJF2)
# Sequence (Q5BJF2 whole entry): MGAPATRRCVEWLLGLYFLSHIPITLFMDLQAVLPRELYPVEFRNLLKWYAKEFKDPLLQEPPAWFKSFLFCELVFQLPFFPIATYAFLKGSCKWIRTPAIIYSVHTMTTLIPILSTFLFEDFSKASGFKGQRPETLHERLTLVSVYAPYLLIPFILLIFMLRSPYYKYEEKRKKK
# assay_name: biochemical
# Type: Expi293 membranes
# experimental_context: read-out: % of control remaining
Your answer is read as %, so omit the unit and give the number.

Previously resolved entries follow.
>>> recorded_value("CC(C)n1cc(C(=O)N2CC(O)(CNC(=O)c3ccnnc3)C2)nn1 [ZINC001047126822]")
107
>>> recorded_value("CC1CCC(N2CCN(CCOC(C)C)CC2)CC1 (stereo not shown) [ZINC000115566238]")
18.2
>>> recorded_value("C[C@@H](C(=O)NCc1ccccc1Cl)N1CC[C@H](n2ncc3ccccc32)C1 [ZINC000542825037]")
107
>>> recorded_value("Cn1ccc(N2CC[C@@H](N[C@H]3CCN(C(=O)CC4CCC4)C3)C2=O)n1 [ZINC001018665695]")
120
>>> recorded_value("Cc1csc2nc(CN[C@](C)(CO)Cc3ccc(F)cc3)cc(=O)n12 [ZINC000933438523]")
28.1
>>> recorded_value("Clc1ccc(O[C@H]2CCN(C3CCCC3)C2)cc1 [ZINC000645238909]")
35.5

Consider the record given below.
Exam item: Field request: remaining activity at 1 µM | item: CCc1cc(N2CCC[C@@H](N[C@H](C)c3ccc(OC)c(Cl)c3)C2)ncn1 [ZINC000536865847]
Marked response: 36.3

* * *

# target_or_test_system: human σ2 receptor (TMEM97) (Homo sapiens, UniProt Q5BJF2)
# assay_name: biochemical
# Format: Expi293 membranes
# experimental_context: read-out: % of control remaining
Checkbox rule: remaining activity at 1 µM lower than 90% = True; remaining activity at 1 µM not lower than 90% = False.

Reference set, count: 4
>>> label_value("Cc1ccccc1NC(=O)CN1CCC[C@@H]1C[C@H](C)O [ZINC000228149300]")
"False"
>>> label_value("CC(C)CSc1ccc([N+](=O)[O-])cc1C(=O)N(C)C[C@H]1CCCN1C [ZINC000421710394]")
"False"
>>> label_value("O[C@@H]1CC[C@@H]2CN(Cc3cccc4c[nH]nc34)C[C@@H]21 [ZINC000582751592]")
"True"
>>> label_value("Cc1ccc(NC(=O)C23CCC(CC2)N3)cc1[N+](=O)[O-] [ZINC000911907143]")
"False"

With those in mind, consider the next compound.
Exam item: Problem: For the compound CNC(=O)[C@@H](C)N1CCC2(CN(C(=O)c3c[nH]c4nccc-4c3)C2)C1 [ZINC001072835483] , is remaining activity at 1 µM under 90%?
Marked response: True

* * *

# target_or_test_system: human σ2 receptor (TMEM97) (Homo sapiens, UniProt Q5BJF2)
# assay_name: biochemical
# Format: Expi293 membranes
# experimental_context: read-out: % of control remaining
measured_quantity: remaining activity at 1 µM (%)
Your answer is read as %, so omit the unit and give the number.

Previously resolved entries follow.
>>> recorded_value("CC(C)CC[C@@H](CO)N[C@H](C)c1nc2c(s1)CCCC2 [ZINC000624110289]")
49.3
>>> recorded_value("CCc1c(C(=O)N[C@@H](C)C2CCN(C)CC2)cnn1-c1ccccc1 [ZINC000603324806]")
65.5
>>> recorded_value("CN1CC[C@@H](CNC(=O)Nc2cc(F)ccc2Oc2ccccc2)C1 [ZINC000454705882]")
87.6

Exam item: Field request: remaining activity at 1 µM | item: Cn1cc(CN[C@H]2C[C@H](NC(=O)c3cccc(C(N)=O)n3)C2)cn1 [ZINC001021109191]
Marked response: 106

* * *

# target_or_test_system: human σ2 receptor (TMEM97) (Homo sapiens)
# assay_name: biochemical
# Type: Expi293 membranes
# experimental_context: read-out: % of control remaining
measured_quantity: remaining activity at 1 µM (%)
Your answer is read as %, so omit the unit and give the number.

>>> recorded_value("O=C1NCCC[C@@H]1N1CC[C@@H](c2cccc(Cl)c2)C1 [ZINC000336580930]")
60.9
>>> recorded_value("CN1CC[C@]2(CCN(C(=O)C(=O)Nc3cccc4nonc34)C2)C1 [ZINC000847525041]")
59.3
>>> recorded_value("CCc1ccc([C@@H]2CCN(Cc3cc(=O)n4c(C)cccc4n3)C2)cc1 [ZINC000433044150]")
5
>>> recorded_value("Cc1cc(C(=O)N2CC[C@H](N(C)Cc3ccc(C)c(C)c3)C2)on1 [ZINC000971070823]")
90.9
>>> recorded_value("Cc1c(F)cccc1C(=O)N[C@@H]1CN(CCC2CCCCC2)C[C@H]1O [ZINC001077034834]")
16.5

Exam item: Field request: remaining activity at 1 µM | item: CCCN1CCC[C@H]1C(=O)NCc1cnccc1C(F)(F)F [ZINC000621202771]
Marked response: 61.4

Exam item: Field request: remaining activity at 1 µM | item: COc1ccnc(N2CCN([C@H](C)CCSc3ccccc3)CC2)n1 [ZINC000473272986]
Marked response: 66.5

Exam item: Field request: remaining activity at 1 µM | item: Cc1ccccc1Cc1nnc(CN2C[C@@H](N3CCCC3)C[C@H]2C)o1 [ZINC000367601434]
Marked response: 90.8

Exam item: Field request: remaining activity at 1 µM | item: COc1ccc(C(=O)N(C)C[C@H](C)NCC2CCC(C)(C)CC2)nn1 [ZINC001403624658]
Marked response: 65.3

Exam item: Field request: remaining activity at 1 µM | item: CO[C@H](C)CS(=O)(=O)N1CCN(C(=O)C(=O)N2CCCC2)CC1 [ZINC000442921898]
Marked response: 111

Exam item: Field request: remaining activity at 1 µM | item: C[C@H]1C[C@H](N2CCCC2)CN1CC(=O)N(Cc1ccccc1)c1ccccc1 [ZINC000512182007]
Marked response: 31.6

Exam item: Field request: remaining activity at 1 µM | item: CCc1cc(C(=O)NC[C@H]2CN(CCn3cncn3)CCCO2)no1 [ZINC001073859800]
Marked response: 110

Exam item: Field request: remaining activity at 1 µM | item: C[C@H](CCNC(=O)N1CCO[C@H]([C@@H]2CCCO2)C1)N1CCCCC1 [ZINC000182663590]
Marked response: 98

Exam item: Field request: remaining activity at 1 µM | item: C[C@@H](C(=O)NC[C@H](C)N1CCCC1)c1c(Cl)cccc1Cl [ZINC000586751050]
Marked response: 98.2

Exam item: Field request: remaining activity at 1 µM | item: C[C@@H](C(=O)NCc1ccc(Cl)cc1)N1CCC(C(C)(C)C)CC1 [ZINC001169307444]
Marked response: 21.2

Exam item: Field request: remaining activity at 1 µM | item: O=C(NCC[C@@H]1CCN(C(=O)c2ccncn2)C1)c1c[nH]c(=O)cn1 [ZINC001060201073]
Marked response: 76

Exam item: Field request: remaining activity at 1 µM | item: C[C@@H](C(=O)N(C)Cc1cccc(F)c1)N1CC=C(c2c[nH]c3ncccc23)CC1 [ZINC000533478938]
Marked response: 2.7

Attribution: paper doi:10.1101/2021.04.29.441652v1
